Origin of the recorded values: patent US20250312499A1

Target: UniProtKB Q969F8
Sequence (Q969F8 whole entry): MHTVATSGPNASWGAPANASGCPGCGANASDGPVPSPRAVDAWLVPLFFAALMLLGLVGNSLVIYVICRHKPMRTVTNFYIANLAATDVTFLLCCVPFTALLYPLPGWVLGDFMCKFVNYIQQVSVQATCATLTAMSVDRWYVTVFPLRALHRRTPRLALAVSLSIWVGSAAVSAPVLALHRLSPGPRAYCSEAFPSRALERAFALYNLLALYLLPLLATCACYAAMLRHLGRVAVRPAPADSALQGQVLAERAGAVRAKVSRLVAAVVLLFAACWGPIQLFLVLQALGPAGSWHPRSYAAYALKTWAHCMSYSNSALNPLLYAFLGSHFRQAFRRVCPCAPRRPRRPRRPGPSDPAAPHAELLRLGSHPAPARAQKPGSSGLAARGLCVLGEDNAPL
Test: Human KISS1R binding assay (membrane competition binding)
Conditions: 90 min at room temperature; competition with 0.2 nM [125I]-metastin (45-54); Flp-In T-Rex 293 kisspeptin membranes; metal complexes nonradioactive Ga, In, Lu; read-out: hKiSSR Binding Ki (90 min)
pKi: −log10 of the molar value. Numbered stars: 1 amine (or outer) side, 2 acyl side, 3 side chain; on linkers, the order of the positions; unused ones are H or OH. Square brackets hold non-standard residues; d marks the D form. Peptide text beside a SMILES is read from it. * marks the point of attachment. DOTA = O=C(O)CN1CCN(CC(=O)O)CCN(CC(=O)*)CCN(CC(=O)O)CC1; Gly(N-(3-F-4-Me-benzyl)) = Cc1ccc(CNCC(=O)*)cc1F; Hydrocinnamoyl(4-Me) = Cc1ccc(CCC(=O)*)cc1; X1 = O=C(CN1CCC(N[*:1])CC1)[*:2]; 4Pal = N[C@@H](Cc1ccncc1)C(=O)O; Cha = N[C@@H](CC1CCCCC1)C(=O)O; 4Amb = NCc1ccc(C(=O)O)cc1; Api = NC1(C(=O)O)CCNCC1; PEG2 = NCCOCCOCCC(=O)O; Ahx = NCCCCCC(=O)O; azaGly = NNC(=O)O; Sar = CNCC(=O)O
EXPERIMENTAL_ENDPOINT: pKi

{"COMPOUND": "CNCC(=O)N1CCC(NC(=O)[C@H](CC(C)C)NC(=O)NNC(=O)[C@H](CC2CCCCC2)NC(=O)[C@@H](NC(=O)[C@H](CC(N)=O)NC(=O)[C@@H](CCCCNC(=O)CN2CCN(CC(=O)O)CCN(CC(=O)O)CCN(CC(=O)O)CC2)NC(=O)[C@@H](Cc2ccc(O)cc2)NC(=O)CCOCCOCCNC(=O)CCc2ccc(C)cc2)[C@@H](C)O)(C(=O)N[C@H](Cc2c[nH]c3ccccc23)C(N)=O)CC1 [Compound 358] ({Hydrocinnamoyl(4-Me)-PEG2}-[dY][dK](DOTA)NT[Cha][azaGly]L[Api](Sar)[dW]-NH2)", "OBS_VALUE": "> 8.00"}
{"COMPOUND": "Cc1ccc(CNCC(=O)N2CCC(NC(=O)[C@H](CC(C)C)NC(=O)NNC(=O)[C@H](Cc3ccccc3)NC(=O)CN3CCC(NC(=O)CN4CCN(CC(=O)O)CCN(CC(=O)O)CCN(CC(=O)O)CC4)CC3)(C(=O)N[C@@H](Cc3ccncc3)C(N)=O)CC2)cc1F [Compound 246] ({DOTA}-[X1]F[azaGly]L[Api](Gly(N-(3-F-4-Me-benzyl)))[4Pal]-NH2)", "OBS_VALUE": "7.00 to 8.00"}
{"COMPOUND": "Cc1ccc(CNCC(=O)N2CCC(NC(=O)[C@H](CC(C)C)NC(=O)NNC(=O)[C@H](Cc3ccccc3)NC(=O)c3ccc(CNC(=O)CCCCCNC(=O)CN4CCN(CC(=O)O)CCN(CC(=O)O)CCN(CC(=O)O)CC4)cc3)(C(=O)N[C@@H](Cc3c[nH]c4ccccc34)C(N)=O)CC2)cc1F [Compound 22] ({DOTA-Ahx-4Amb}-F[azaGly]L[Api](Gly(N-(3-F-4-Me-benzyl)))W-NH2)", "OBS_VALUE": "> 8.00"}
